assay: DMPC liposome clearance by lipid-free apolipoproteins (A325); assay type: biochemical; conditions: lipid-free apolipoprotein, protein:lipid 1:75, A325 over 90 minutes
Listing of recorded Rate of DMPC clearance Ka by entry.
Observable: Rate of DMPC clearance Ka (s⁻¹)

Molecule: PP124: novel truncated apolipoprotein variant SEQ ID NO: 876 (protein) KVEQAVETEPEPELRQQTEWQSGQRWELALGRFWDYLRWVQTLSEQVQEELLSSQVTQELRALMDETMKELKAYKSELEEQLTPVAEETRARLSKELQAAQARLGADMEDVCGRLVQYRGEVQAMLGQSTEELRVRLASHLRKLRKRLLRDADDLQKRLAVYQAGAREGAERGLSAIRERLGPLVEQGRVRAATVGSLAGQPLQERAQAWGERLRARMEEMGSRTRDRLDEVKEQEAAKLEEQAQQIRLQAEAFQARLKPLVEDMQRQWAGLVEKVQAAVGTSAAPVPSDNH
Observable: Rate of DMPC clearance Ka
Value measured: 0.0221
--
Molecule: PP127: novel truncated apolipoprotein variant SEQ ID NO: 879 (protein) KVEQAVETEPEPELRQQTEWQSGQRWELALGRFWDYLRWVQTLSEQVQEELLSSQVTQELRALMDETMKELKAYKSELEEQLTPVAEETRARLSKELQAAQARLGADMEDVCGRLVQYRGEVQAMLGQSTEELRVRLASHLRKLRKRLLRDADDLQKRLAVYQAGAREGAERGLSAIRERLGDRLDEVKEQEAAKLEEQAQQIRLQAEAFQARLKPLVEDMQRQWAGLVEKVQAAVGTSAAPVPSDNH
Observable: Rate of DMPC clearance Ka
Value measured: 0.0058
